Origin of measurements: patent US20200339690A1

Assay Target: T1, human LILRA1 (human, UniProt O75019 17-489)
T1 construct: Over-expressed on CHO-s cells; also called hLILRA1
T1 sequence (O75019 17-489 limits assumed): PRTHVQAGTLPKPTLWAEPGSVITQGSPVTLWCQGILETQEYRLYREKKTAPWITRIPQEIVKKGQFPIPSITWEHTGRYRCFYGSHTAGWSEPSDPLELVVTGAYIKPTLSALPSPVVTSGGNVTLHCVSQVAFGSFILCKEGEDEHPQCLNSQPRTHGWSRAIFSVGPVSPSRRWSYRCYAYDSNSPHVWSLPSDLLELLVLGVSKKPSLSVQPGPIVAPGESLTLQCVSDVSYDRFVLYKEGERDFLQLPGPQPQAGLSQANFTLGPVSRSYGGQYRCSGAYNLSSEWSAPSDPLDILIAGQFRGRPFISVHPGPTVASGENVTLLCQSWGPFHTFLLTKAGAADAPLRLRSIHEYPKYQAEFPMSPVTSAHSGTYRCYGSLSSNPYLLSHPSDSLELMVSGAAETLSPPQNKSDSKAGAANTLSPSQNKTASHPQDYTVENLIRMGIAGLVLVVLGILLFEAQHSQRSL
Test Protocol: flow cytometry, LILRA1 CHOs
Value Kind: binding result

Binder | Value Kind | Val
J-03 (antibody, human IgG4 S228P, kappa, V domains shown, Human IgG4 chimera of murine origin) VH: QVQLQQSGAELVRPGASVTLSCKASGYKFTDYEMHWVKQTPVHGLEWIGAIDPETNGTAYNKKFKGKAILTADKSSSTAYMELRSLTSEDSAVYYCTRGDYDFSAWFAYWGQGTLVTVSA VL: DIVLTQSPASLAVSLGQRATISCRASESVDNYDISFMHWYQQKPGQPPKLLIYRASNLESGIPARFSGSGSRTDFTLTINPVETDDVATYYCQQSNKDPRTFGGGTKLEIKR | binding result | no binding
J-11 (antibody, human IgG4 S228P, kappa, V domains shown, Human IgG4 chimera of murine origin; also called J-11.h) VH: QVQLQQSGAELMKPGASVKLSCKATGYILTGYWIEWVKQRPGHGLEWIGEILPGSGSTNYNENFKGKATFTADTSSNTAYMQLSSLTTEDSAIYYCARAVLGYFDYWGQGTTLTVSS VL: DIVMTQSHKFMSTSVGDRVSITCKASQDVSTAVAWYQQKPGQSPKLLIYWASTRHTGVPDRFTGSGSGTDYTLTISSVQAEDLALYYCHQHYSTYTFGGGTKLEIKR | binding result | no binding
J-04 (antibody, human IgG4 S228P, kappa, V domains shown, Human IgG4 chimera of murine origin) VH: QVQLQQSGAELVRPGASVTLSCKASGYTFADYEIHWVKQTPVHGLEWIGAIDPETGGTAYNQKFKGKAILTADKSSSTAYMELRSLTSEDSAVYYCTRYYDYDDAMDYWGQGTSVTVSS VL: QIVLTQSPAIMSASPGEKVTMTCSASSSVSFMHWYQQKSGTSPKRWIYGTSKLASGVPARFSGSGSGTSYSLTISSMEAEDAATYYCQQWNGNPFTFGSGTKLETKR | binding result | no binding
